Test system: HOP-62 NSCLC
Test: NCI tumour cell line growth inhibition, 48 h
Metric: GI50

                                   molecule  recorded_value
0            CCCCc1ccc2nc(NC(=O)OC)[nH]c2c1          126 nM
1  CCN(CC)CCn1c(=N)n(CC(O)c2ccc(Cl)c(Cl)c2)c2ccccc21 (centres undefined)        11800 nM
2  O=C1CCC/C=C\C[C@H]2C=C(Cl)C(=O)/C2=C/C[C@H](CCCCC(F)(F)F)OC(=O)CCC/C=C\C[C@H]2C=C(Cl)C(=O)/C2=C/C[C@H](CCCCC(F)(F)F)O1          274 nM
3  COc1ccc([C@H]2c3cc(OC)c(OC)cc3C=C(C=O)C2CO)cc1OC (some centres undefined)         4790 nM
4         O=C(CCCCCCc1nc2ccc(Br)cc2[nH]1)NO          632 nM
5  COc1cc(-c2cc(-c3ccc(N(C)C)cc3)nc(N3CCC(O)CC3)c2C#N)cc(OC)c1OC          953 nM
6  CCc1cc(C(N)=O)ccc1-n1nc(C(C)C)c2c(-n3cnc(-c4cnn(C)c4)c3)ccnc21         7920 nM
7  c1ccc([CH2][Sn]([CH2]c2ccccc2)([S]c2cccc3cccnc23)[S]c2cccc3cccnc23)cc1          764 nM
8  O=C(Nc1ccc(Cl)c(Cl)c1)Nc1ccc(Cl)c([N+](=O)[O-])c1         2060 nM

###

Measured TGI of individual entries
Tested on: A549 NSCLC
Assay: NCI tumour cell line growth inhibition, 48 h
Metric: TGI

Compound	Metric	Recorded Value
Cc1oc2nc1C(=O)NCc1nc(cs1)C(=O)N[C@H](C(C)C)c1nc(cs1)C(=O)N[C@H]2C	TGI	> 100 µM
C=Nc1ccc([N+](=O)[O-])cc1	TGI	> 100 µM
CCCCc1ccc2nc(NC(=O)OC)[nH]c2c1	TGI	> 100 µM
O=C(CC1Sc2ccccc2NC1=O)Nc1cccc(Cl)c1 (stereo not drawn)	TGI	> 100 µM
COC(=O)C1=CC(=O)C(C(=O)Nc2ccc(OC)cc2)C(c2ccccc2)O1 (stereo not drawn)	TGI	> 72.9 µM
CCOP1(=O)OCC2OC(n3cnc4c(N)ncnc43)C(O)C2O1 (stereo not drawn)	TGI	> 100 µM
COC1OC(OC)C2C(c3c(C)cc(C)cc3C)=NOC12 (stereo not drawn)	TGI	> 100 µM
COC(=O)c1c(OC(C)=O)ccc2c1c1c(OC(C)=O)c3ccccc3c(OC(C)=O)c1n2Cc1cc(OC)cc(OC)c1	TGI	> 100 µM
COC(=O)C1=Cc2cc3c(cc2[C@H](c2ccc4c(c2)OCO4)C1C(=O)OC)OCO3 (stereo partly drawn)	TGI	> 100 µM
O=c1c(Cl)nsnc1Cl	TGI	65.4 µM
CCNc1nc(N)c(C(=O)c2ccc(Cl)cc2)s1	TGI	70.2 µM
CSc1nc2ccccc2c(=O)n1/N=C1\C(=O)N(CN2CCOCC2)c2ccc(Cl)cc21	TGI	> 100 µM
N/C(=N\N=C\c1ccc2c(c1)OCO2)NO	TGI	> 100 µM
O=C1C=Cc2c(Cl)sc(Cl)c21	TGI	> 90.6 µM
Nc1nc2nc3c(nc2c(=O)[nH]1)CN(c1ccc(C(=O)O)cc1)C3=O	TGI	> 100 µM
CCCCC1(N=[N+]=[N-])C(=O)c2cccc3c2N(CCC3)C1=O (stereo not drawn)	TGI	> 100 µM
Nc1ccc2c(c1)C1Oc3ccccc3CC1CO2 (stereo not drawn)	TGI	> 100 µM
CC[C@]1(O)C[C@@H]2CN(Cc3c([nH]c4ccccc34)[C@@](C(=O)OC)(c3cc4c(cc3OC)N(C)[C@H]3[C@@](O)(C(=O)OC)[C@H](OC(C)=O)[C@]5(CC)[C@@H]6C[C@@H]6CN6CC[C@]43[C@@H]65)C2)C1	TGI	> 4.38 µM
